Source listed as PubChem BioAssay.

tested on: R275C/beta2Delta; assay: modulators of BK channel variants, profiling panel, selectivity assay, cell-based, U2OS BacMam, thallium flux, beta subunits (AID 1259406); details: at 30 µM;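 also: initial slope of Thallos dye fluorescence rise after thallium is added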
Activity calls are given as the source filed them.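 The calls were made as follows: active = thallium flux through the channel raised or lowered by more than 3 SD from vehicle-only wells, actives on both sides; inactive = the rest.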
Outcomes: Yes for active, No for inactive

O=C(O)CCSc1ccc2ccccc2c1 ... No
C=C1/C(=C\C=C2/CCC[C@]3(C)[C@@H]([C@H](C)/C=C/[C@@H](O)C4CC4)CC[C@@H]23)C[C@@H](O)C[C@@H]1O ... No
Nc1nc(Cl)nc2c1ncn2[C@H]1C[C@H](O)[C@@H](CO)O1 ... No
Oc1c(Cl)cc(Cl)cc1C=Nc1nccs1 ... Yes
O=C(NCc1ccc2c(c1)OCO2)C1CCN(C(=O)OCc2ccccc2)CC1 ... No
Cc1ccc(-c2nc(N=CNOC(=O)c3ccc([N+](=O)[O-])cc3)sc2C)cc1Cl ... Yes
COc1ccc2c(OC(C)=O)coc2c1 ... No
C#CC1(NC(=O)c2ccc(-c3ccc(CC)cc3)cc2)CCCCC1 ... No
Cc1ccc(S(N)(=O)=O)c(I)c1 ... No
Oc1ccccc1C=NCCN=Cc1ccccc1O ... No
COC(=O)C[C@](O)(CCCC(C)(C)O)C(=O)O[C@@H]1C(OC)=C[C@]23CCCN2CCc2cc4c(cc2[C@H]13)OCO4 ... No
O=c1[nH]nc(N2CCSCC2)[nH]1 ... No
COc1cc(C[C@@H](CO)[C@H](CO)Cc2ccc(O)c(OC)c2)ccc1O ... No
CN(C)c1ccc(C=NNC(N)=S)c(Cl)c1 ... No
CN1c2ccsc2C(=O)C(=NNc2cccc(C(F)(F)F)c2)S1(=O)=O ... No
CCc1[nH]c(=S)[nH]c(=O)c1C#N ... No
CCCOc1ccccc1C=NNC(=S)Nc1ccc(C)c(C)c1 ... No
CC(N)(Cc1ccc(O)c(O)c1)C(=O)O (stereo not drawn) ... No
FC(F)(F)COc1ccc(-c2nnc(SCc3ccccc3C(F)(F)F)o2)cn1 ... No
CCOC(=O)c1cnc(C(F)(F)F)nc1NN=Cc1c(Cl)cccc1Cl ... No
O=C1CN2Cc3c(ccc(Cl)c3Cl)N=C2N1 ... No
Cc1nn(S(=O)(=O)c2ccccc2)c(C)c1Oc1ccc(Cl)cc1 ... No
CC1(C)SC2C(NC(=O)C(N)c3ccccc3)C(=O)N2C1C(=O)O (stereo not drawn) ... No
